Source: ChEMBL document CHEMBL3352721

System: MDR1
Assay: Apparent permeability in MDCK cells expressing MDR1 at 10 uM assessed as apical to basolateral side transport
Format: ADME, cell-based, Canis lupus familiaris
Conditions: dog
Label rule, in plain words: Papp A→B at 10 µM of 4 ×10⁻⁶ cm/s and up is MET, under 4 ×10⁻⁶ cm/s is NOT MET.

Query :: Test whether the compound CN1CCC(S(=O)(=O)c2ccc3nc(NC(=O)NC(=O)c4cc(N5CCOCC5)ccc4Cl)sc3c2)CC1 records Papp A→B at 10 µM of 4 ×10⁻⁶ cm/s or higher.
Result :: MET

Query :: Is it the case that CCOc1ccc(Cl)c(C(=O)NC(=O)Nc2nc3ccc(S(=O)(=O)CCCN4CCN(C)CC4)cc3s2)c1 has Papp A→B at 10 µM reaching or exceeding 4 ×10⁻⁶ cm/s?
Result :: NOT MET

Query :: Hello, I need to know if CN1CCN(CCCS(=O)(=O)c2ccc3nc(NC(=O)NC(=O)c4cc(C5CC5)ccc4Cl)sc3c2)CC1 has measured Papp A→B at 10 µM not below 4 ×10⁻⁶ cm/s. Thanks!
Result :: NOT MET

Query :: Answer whether Papp A→B at 10 µM of CCN(CC)CCCS(=O)(=O)c1ccc2nc(NC(=O)NC(=O)c3cc(N4CCOCC4)ccc3Cl)sc2c1 is greater than or equal to 4 ×10⁻⁶ cm/s.
Result :: NOT MET

Query :: Textbook exercise: given the entry Cc1ccn(-c2ccc(C(=O)NC(=O)Nc3nc4ccc(S(=O)(=O)CCCN5CCN(C)CC5)cc4s3)c(Cl)c2)n1 , state whether its Papp A→B at 10 µM is greater than or equal to 4 ×10⁻⁶ cm/s.
Result :: NOT MET

---

Assay: Lipophilicity, logD of the compound
Assay type: physicochemical
Conditions: octanol/water
Assay Endpoint: logD
Keep the answer to the number alone.

Query :: Identify logD associated with the compound CN1CCC(S(=O)(=O)c2ccc3nc(NC(=O)NC(=O)c4cc(-n5cccn5)ccc4Cl)sc3c2)CC1
Result :: 2.5

Query :: Using known records, supply logD for CN1CCC(S(=O)(=O)c2ccc3nc(NC(=O)NC(=O)c4ccccc4Cl)sc3c2)CC1
Result :: 2.2

Query :: In one line, give reported logD of the entry CN1CCC(S(=O)(=O)c2ccc3nc(NC(=O)NC(=O)c4cc(N5CCCC5)c(C#N)cc4Cl)sc3c2)CC1 .
Result :: 3

Query :: Please give the documented logD of CN1CCN(CCCS(=O)(=O)c2ccc3nc(NC(=O)NC(=O)c4cc(C5CC5)ccc4Cl)sc3c2)CC1
Result :: 2.9

Query :: Answer with reported logD of CN1CCN(CCCS(=O)(=O)c2ccc3nc(NC(=O)NC(=O)c4cc(-c5ccccn5)ccc4Cl)sc3c2)CC1
Result :: 2.5

Query :: Give logD for CS(=O)(=O)c1ccc2nc(NC(=O)NC(=O)c3ccccc3Cl)sc2c1
Result :: 2.5

Query :: Given CN1CCN(CCCS(=O)(=O)c2ccc3nc(NC(=O)NC(=O)c4cc5c(ccn5C)cc4Cl)sc3c2)CC1 , respond with its logD.
Result :: 2.8

Query :: For CN1CCN(CCS(=O)(=O)c2ccc3nc(NC(=O)NC(=O)c4ccccc4Cl)sc3c2)CC1 , write its logD.
Result :: 1.5

Query :: Provide only the value of recorded logD for CCN(CC)CCCS(=O)(=O)c1ccc2nc(NC(=O)NC(=O)c3cc(-n4cccc4)ccc3Cl)sc2c1
Result :: 2.9

Query :: Answer with the recorded logD for the compound listed here: Cc1ccn(-c2ccc(Cl)c(C(=O)NC(=O)Nc3nc4ccc(S(=O)(=O)CCCN5CCN(C)CC5)cc4s3)c2)n1
Result :: 2.6

Query :: Item CN1CCCN(CCCS(=O)(=O)c2ccc3nc(NC(=O)NC(=O)c4ccccc4Cl)sc3c2)CC1 : provide logD
Result :: 1

Query :: Give the reported logD for this compound. CN(C)CCCS(=O)(=O)c1ccc2nc(NC(=O)NC(=O)c3ccccc3Cl)sc2c1
Result :: 1.7

Query :: Output measured logD for this item: CS(=O)(=O)c1ccc2nc(NC(=O)NC(=O)c3cc(-n4cccc4)ccc3Cl)sc2c1
Result :: 2.8

Query :: Answer with the recorded logD for the compound listed here: CN1CCN(CCCS(=O)(=O)c2ccc3nc(NC(=O)NC(=O)c4cc(-n5cccn5)c(Cl)cc4Cl)sc3c2)CC1
Result :: 2.3

Query :: Dear colleague, please send me the reported logD for COc1cc(Cl)c(C(=O)NC(=O)Nc2nc3ccc(S(=O)(=O)CCCN4CCN(C)CC4)cc3s2)cc1-n1cccn1 when you can.
Result :: 2.2

Query :: Tell us which logD value is on record for CN1CCC(S(=O)(=O)c2ccc3nc(NC(=O)NC(=O)c4cc5c(cc4Cl)CCN5C)sc3c2)CC1
Result :: 2.8

Query :: Quote logD reported for CCN(CC)CCCS(=O)(=O)c1ccc2nc(NC(=O)NC(=O)c3ccccc3Cl)sc2c1 please.
Result :: 1.7

Query :: Please report the measured logD for CN1CCN(CCCS(=O)(=O)c2ccc3nc(NC(=O)NC(=O)c4cc(N5CCCC5)c(C#N)cc4Cl)sc3c2)CC1
Result :: 2.8

Query :: Annotate the compound Cc1ccnn1-c1ccc(Cl)c(C(=O)NC(=O)Nc2nc3ccc(S(=O)(=O)C4CCN(C)CC4)cc3s2)c1 with its measured logD.
Result :: 2.6

Query :: Give me measured logD, please, for this compound: CS(=O)(=O)c1ccc2nc(NC(=O)NC(=O)c3ccccc3Cl)oc2c1
Result :: 1.1

Query :: // fetch logD given entry CN1CCN(CCCS(=O)(=O)c2ccc3nc(NC(=O)NC(=O)c4ccccc4Cl)sc3c2)CC1
Result :: 1.8

Query :: Give recorded logD. CS(=O)(=O)c1ccc2sc(NC(=O)NC(=O)c3ccccc3Cl)nc2c1
Result :: 2.8

Query :: Write down logD measured for item CN1CCN(CCCS(=O)(=O)c2ccc3nc(NC(=O)NC(=O)c4cc(N5CCCC5)ccc4Cl)sc3c2)CC1
Result :: 3.1

Query :: For CCN(CC)CCCS(=O)(=O)c1ccc2nc(NC(=O)NC(=O)c3cc(N4CCOCC4)ccc3Cl)sc2c1 , write its logD.
Result :: 1.8

Query :: Specify reported logD for the compound shown: CCN(CC)CCCS(=O)(=O)c1ccc2nc(NC(=O)NC(=O)c3cc(-n4cccn4)ccc3Cl)sc2c1
Result :: 2.1
